# Tested on: ATP;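 further: ATP exposure 15 min at 22 °C before imaging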
# procedure-text: switch fluorescence ratio, 500 uM ATP over buffer (Cy3 cluster intensity, sum of 5 cycles each) (fold (ratio)); higher = stronger signal-on switching upon ATP binding; sequences stand for … in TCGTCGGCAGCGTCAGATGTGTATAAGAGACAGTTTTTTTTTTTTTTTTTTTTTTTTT…TC
# protocol-conditions: aptamer strand: ATP DNA aptamer (quencher-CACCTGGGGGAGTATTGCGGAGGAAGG + anchor), 100 nM annealed; ATP concentration: 500 uM
measurement-name: switch fluorescence ratio
No unit in the answer, please; the number alone is enough.

-- ask Specify measured switch fluorescence ratio for TAAAGAAAGC .
-- reply 0.975

-- ask Specify measured switch fluorescence ratio for TGGTTAAATT .
-- reply 0.997

-- ask Specify measured switch fluorescence ratio for TGGGTAGGCT .
-- reply 0.996

-- ask Specify measured switch fluorescence ratio for AGTTTTTAGG .
-- reply 0.99

-- ask Specify measured switch fluorescence ratio for TGGTTTCAGG .
-- reply 1.01

* * *

Listing of entries alongside the reported switch fluorescence ratio.
# Tested on: ATP;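 further: ATP exposure 15 min at 22 °C before imaging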
# procedure-text: switch fluorescence ratio, 500 uM ATP over buffer (Cy3 cluster intensity, sum of 5 cycles each) (fold (ratio)); higher = stronger signal-on switching upon ATP binding; sequences stand for … in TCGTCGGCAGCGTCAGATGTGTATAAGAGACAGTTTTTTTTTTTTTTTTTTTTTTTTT…TC
# protocol-conditions: aptamer strand: ATP DNA aptamer (quencher-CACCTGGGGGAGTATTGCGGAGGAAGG + anchor), 100 nM annealed; ATP concentration: 500 uM
No unit in the answer, please; the number alone is enough.

| sequence-chain | target-entity | switch fluorescence ratio |
| --- | --- | --- |
| TGGTGGTATG | ATP | 1.01 |

# ---- query sequence ----
-- ask Specify measured switch fluorescence ratio for TACTGAATTA .
-- reply 1.03

* * *

# System: ATP;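 further: ATP exposure 15 min at 22 °C before imaging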
# procedure-text: switch fluorescence ratio, 500 uM ATP over buffer (Cy3 cluster intensity, sum of 5 cycles each) (fold (ratio)); higher = stronger signal-on switching upon ATP binding; sequences stand for … in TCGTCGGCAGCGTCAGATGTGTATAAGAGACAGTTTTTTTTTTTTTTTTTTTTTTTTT…TC
# protocol-conditions: aptamer strand: ATP DNA aptamer (quencher-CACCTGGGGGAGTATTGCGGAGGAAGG + anchor), 100 nM annealed; ATP concentration: 500 uM
measurement-name: switch fluorescence ratio
No unit in the answer, please; the number alone is enough.

Some solved entries appear below for comparison.
| sequence-chain | target-entity | switch fluorescence ratio |
| --- | --- | --- |
| TAGTCTGGT | ATP | 0.999 |
| TTTTTGTCGC | ATP | 0.992 |
| CATGTGAAGC | ATP | 1.01 |

# ---- query sequence ----
-- ask Specify measured switch fluorescence ratio for GGGGGAGTCG .
-- reply 1.02

* * *

# System: ATP;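 further: ATP exposure 15 min at 22 °C before imaging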
# procedure-text: switch fluorescence ratio, 500 uM ATP over buffer (Cy3 cluster intensity, sum of 5 cycles each) (fold (ratio)); higher = stronger signal-on switching upon ATP binding; sequences stand for … in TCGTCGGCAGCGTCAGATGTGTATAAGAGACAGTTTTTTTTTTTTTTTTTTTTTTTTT…TC
# protocol-conditions: aptamer strand: ATP DNA aptamer (quencher-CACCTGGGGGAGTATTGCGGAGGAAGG + anchor), 100 nM annealed; ATP concentration: 500 uM
measurement-name: switch fluorescence ratio

| sequence-chain | measurement-name | result |
| --- | --- | --- |
| AGGATGGGCG | switch fluorescence ratio | 0.928 |

-- ask Specify measured switch fluorescence ratio for CTGGCAGAAA .
-- reply 1.02

-- ask Specify measured switch fluorescence ratio for ACTACTACCA .
-- reply 1.31

-- ask Specify measured switch fluorescence ratio for GGTTTCCGGC .
-- reply 1.01

-- ask Specify measured switch fluorescence ratio for ACCAAGGGGT .
-- reply 1.02

-- ask Specify measured switch fluorescence ratio for GAGAGAGGGT .
-- reply 0.997

-- ask Specify measured switch fluorescence ratio for AGGATTATTG .
-- reply 0.991

-- ask Specify measured switch fluorescence ratio for TGGAGAGGGG .
-- reply 0.996

* * *

# System: ATP;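 further: ATP exposure 15 min at 22 °C before imaging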
# procedure-text: switch fluorescence ratio, 500 uM ATP over buffer (Cy3 cluster intensity, sum of 5 cycles each) (fold (ratio)); higher = stronger signal-on switching upon ATP binding; sequences stand for … in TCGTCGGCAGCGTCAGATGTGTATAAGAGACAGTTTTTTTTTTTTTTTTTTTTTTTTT…TC
# protocol-conditions: aptamer strand: ATP DNA aptamer (quencher-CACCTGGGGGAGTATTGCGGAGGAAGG + anchor), 100 nM annealed; ATP concentration: 500 uM
measurement-name: switch fluorescence ratio
No unit in the answer, please; the number alone is enough.

Some solved entries appear below for comparison.
| sequence-chain | switch fluorescence ratio |
| --- | --- |
| GGTAACGTAG | 0.991 |
| TAGAGAAATT | 0.976 |
| TCATTAAGGT | 0.995 |
| AAATGAGTGT | 0.975 |
| TTAGTTGGGC | 1.01 |

-- ask Specify measured switch fluorescence ratio for GGATTTACGT .
-- reply 1.02

-- ask Specify measured switch fluorescence ratio for GGTAGGGGGC .
-- reply 1.01

-- ask Specify measured switch fluorescence ratio for GTGGAACGTA .
-- reply 0.976

-- ask Specify measured switch fluorescence ratio for GGATTGGTAA .
-- reply 0.992

-- ask Specify measured switch fluorescence ratio for TTAGGATG .
-- reply 1.01

-- ask Specify measured switch fluorescence ratio for TGAAAACGGT .
-- reply 1

-- ask Specify measured switch fluorescence ratio for TGAGGGGTTT .
-- reply 0.992

-- ask Specify measured switch fluorescence ratio for CGTTGTTGTA .
-- reply 1.01

-- ask Specify measured switch fluorescence ratio for TAACTGCATT .
-- reply 1.16

-- ask Specify measured switch fluorescence ratio for CATCTAGCAC .
-- reply 2.63

-- ask Specify measured switch fluorescence ratio for CGAACGGTTT .
-- reply 0.989

-- ask Specify measured switch fluorescence ratio for TTATGCATCG .
-- reply 0.977

-- ask Specify measured switch fluorescence ratio for TCACATTTGG .
-- reply 1.03

-- ask Specify measured switch fluorescence ratio for TTGGTGCCGC .
-- reply 0.975

-- ask Specify measured switch fluorescence ratio for AAGTTCGGGG .
-- reply 1.05

-- ask Specify measured switch fluorescence ratio for TTATGGGAAC .
-- reply 0.974

* * *

Listing of entries alongside the reported switch fluorescence ratio.
# System: ATP;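 further: ATP exposure 15 min at 22 °C before imaging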
# procedure-text: switch fluorescence ratio, 500 uM ATP over buffer (Cy3 cluster intensity, sum of 5 cycles each) (fold (ratio)); higher = stronger signal-on switching upon ATP binding; sequences stand for … in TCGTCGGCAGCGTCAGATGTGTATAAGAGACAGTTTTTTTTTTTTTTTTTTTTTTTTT…TC
# protocol-conditions: aptamer strand: ATP DNA aptamer (quencher-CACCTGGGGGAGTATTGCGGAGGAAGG + anchor), 100 nM annealed; ATP concentration: 500 uM
No unit in the answer, please; the number alone is enough.

Some solved entries appear below for comparison.
| sequence-chain | switch fluorescence ratio |
| --- | --- |
| CGTGGATGCG | 1.03 |
| AAACTATAGA | 1.01 |
| TCGGGAAGGA | 1.01 |
| GGTTATGGCT | 0.997 |
| TTCGTATAGA | 1 |

-- ask Specify measured switch fluorescence ratio for AACCAAAGGT .
-- reply 1.01

-- ask Specify measured switch fluorescence ratio for AGTGCGCATG .
-- reply 1.01

-- ask Specify measured switch fluorescence ratio for TTCGCAGGGA .
-- reply 1.07

-- ask Specify measured switch fluorescence ratio for ACGAGGATGC .
-- reply 1.09

-- ask Specify measured switch fluorescence ratio for ATTGGGGGTA .
-- reply 0.977

* * *

Listing of entries alongside the reported switch fluorescence ratio.
# Test system: ATP;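 further: ATP exposure 15 min at 22 °C before imaging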
# procedure-text: switch fluorescence ratio, 500 uM ATP over buffer (Cy3 cluster intensity, sum of 5 cycles each) (fold (ratio)); higher = stronger signal-on switching upon ATP binding; sequences stand for … in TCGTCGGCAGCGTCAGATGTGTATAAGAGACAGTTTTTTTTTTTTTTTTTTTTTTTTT…TC
# protocol-conditions: aptamer strand: ATP DNA aptamer (quencher-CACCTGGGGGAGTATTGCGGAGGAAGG + anchor), 100 nM annealed; ATP concentration: 500 uM
No unit in the answer, please; the number alone is enough.

| sequence-chain | target-entity | switch fluorescence ratio |
| --- | --- | --- |
| AGTGGGATTA | ATP | 1.01 |
| TAAGGAATCG | ATP | 1 |
| AGTAGGGGCC | ATP | 1.01 |

-- ask Specify measured switch fluorescence ratio for GGTTCATTAG .
-- reply 1.01

-- ask Specify measured switch fluorescence ratio for TTTTCTGTG .
-- reply 0.977

-- ask Specify measured switch fluorescence ratio for GGGGGAGTCA .
-- reply 1

-- ask Specify measured switch fluorescence ratio for TTGCTGTTGC .
-- reply 1

-- ask Specify measured switch fluorescence ratio for TCAGTAAGTT .
-- reply 0.995

-- ask Specify measured switch fluorescence ratio for GATTAAGAGG .
-- reply 1.01

-- ask Specify measured switch fluorescence ratio for TGGGAATGGT .
-- reply 1.01

-- ask Specify measured switch fluorescence ratio for TAAGGAAAGG .
-- reply 0.982

-- ask Specify measured switch fluorescence ratio for TTTAATTGGC .
-- reply 1.17

-- ask Specify measured switch fluorescence ratio for GTCAGAAATG .
-- reply 0.982

-- ask Specify measured switch fluorescence ratio for TCGTACGCTA .
-- reply 3.38

-- ask Specify measured switch fluorescence ratio for TTTAGTCGGT .
-- reply 0.964

-- ask Specify measured switch fluorescence ratio for ATGACGCGTC .
-- reply 0.982

-- ask Specify measured switch fluorescence ratio for AAACGATTTA .
-- reply 1.02

-- ask Specify measured switch fluorescence ratio for ACTTGTTTAT .
-- reply 0.981

-- ask Specify measured switch fluorescence ratio for CTATACGGCA .
-- reply 1.09

-- ask Specify measured switch fluorescence ratio for TTCTCTATTT .
-- reply 0.983

-- ask Specify measured switch fluorescence ratio for TAGAAAGTGT .
-- reply 1.02

-- ask Specify measured switch fluorescence ratio for TAGGCGGATA .
-- reply 1.01

-- ask Specify measured switch fluorescence ratio for GTTGAAGCCC .
-- reply 1.01

-- ask Specify measured switch fluorescence ratio for TACAATTTTA .
-- reply 1.01

-- ask Specify measured switch fluorescence ratio for TGAAGTGGGG .
-- reply 0.954

-- ask Specify measured switch fluorescence ratio for TGTGAAAGGC .
-- reply 1.04

-- ask Specify measured switch fluorescence ratio for AGTGGTGTCT .
-- reply 1.01

-- ask Specify measured switch fluorescence ratio for TGTTGGGGG .
-- reply 0.994

-- ask Specify measured switch fluorescence ratio for TTTGGGGGAA .
-- reply 0.994

-- ask Specify measured switch fluorescence ratio for TTACTGCGGT .
-- reply 1.01

-- ask Specify measured switch fluorescence ratio for TTCCGGTGTT .
-- reply 1.05
